Examples of compounds with documented z-score follow.
Assay: E. coli acrAB mutant growth effects, primary screen, E. coli filamentation inducers, strain DRC39, OD650, 48 h (AID 1179);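 further: screen aims at cell division blockers that make cells filament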
Conditions: E. coli DRC39 delta-acrAB growth, higher = more signal, called active from +8 up or from −8 down
// no unit string in output, number only

Solved entries (count: 3):
Recorded z-score of CN1C(=O)[C@]2(CCS(=O)(=O)c3ccccc3)N=C(c3ccc(OCCCO)cc3)O[C@@H]2c2ccccc21 , please.
-0.687

For C=CC[C@@]1(C(=O)N(C)C)N=C(c2ccc(OCCCO)cc2)O[C@@H]1c1ccccc1 then?
-0.649

For [N-]=[N+]=NCc1ccccc1C[C@]1(C(=O)N2CCOCC2)N=C(c2ccc(OCCCO)cc2)O[C@H]1c1ccccc1CN=[N+]=[N-] then?
0.93

Others:
Recorded z-score of COCCOC(=O)N1C(=O)[C@@]2(c3cc(C#CCC(C(=O)OC)C(=O)OC)ccc31)[C@H](C(=O)N1CCc3cc(OC)c(OC)cc3C1)[C@H]1C(=O)O[C@H](c3ccccc3)[C@H](c3ccccc3)N1[C@@H]2c1ccc(O)cc1 , please.
0.199

For COC(=O)[C@@H]1N=C(c2ccc(OCCCO)cc2)O[C@@H]1c1ccccc1CN=[N+]=[N-] then?
0.396

For CCCCN1CC=CC23O[C@@H]4C=CCOC(=O)[C@@H]4[C@H]2C(=O)N(C(CO)C(C)C)[C@@H]3C1=O (some centres not stated) then?
-0.825

* * *

Assay: E. coli DRC41 culture turbidity changes, primary screen, E. coli filamentation inducer project, strain DRC41, OD650, 48 h (AID 1152);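 further: E. coli MC1000 strain DRC41 lacking acrAB efflux pump and sulA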
Settings: E. coli DRC41 (acrAB sulA), higher = more signal, called active from +8 up or from −8 down
Examples of compounds with documented z-score follow.
// no unit string in output, number only

Recorded z-score of C=CCC(OC(C)=O)[C@@H]1[C@@H](N(Cc2cc3ccccc3o2)C(=O)Cc2ccc(OC)cc2)c2cc(OCCCO)ccc2N1C(=O)Cc1ccc2ccccc2c1 (some centres undefined) , please.
-0.476

Others:
Recorded z-score of CN(C)CCCC[C@@H]1NC(=O)[C@@H]2C[C@H](C(=O)NCc3ccc(F)cc3)[C@H](c3ccc(O)cc3)N2C1=O , please.
-0.876

For COc1ccccc1CN1C(=O)c2ccccc2[C@@H](C(=O)NCCCN(C)C)[C@@H]1c1ccc(CO)cc1 then?
1.21

For CCCC=C(CCC)[C@@H](NC(=O)c1ccccc1)c1ccc(C(=O)OC)cc1 then?
0.119

* * *

Assay: binders of probe aFSTL3 on microarray, primary screen, stem cell growth factor project, biochemical, small-molecule microarray, fluorescence 635/667 (AID 1064);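 further: measures binding of the biotinylated anti-FSTL3 antibody to printed compounds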
Conditions: higher = more signal
Examples of compounds with documented composite z-score follow.

Solved entries (count: 5):
Recorded composite z-score of CC(C)C[C@@H]1NC(=O)[C@@H]2C[C@H](C(=O)O)[C@H](c3ccc(O)cc3)N2C1=O , please.
-0.451

For COC(=O)[C@H](Cc1ccc(O)cc1)N1CC2=CCCC=C[C@@H]2[C@H]1[C@H](O)Cc1ccccc1 then?
-0.565

For COc1ccc(C#Cc2ccc3c(c2)[C@]2(C(=O)N3)[C@H](C(=O)Nc3nc4ccccc4s3)[C@H]3C(=O)O[C@H](c4ccccc4)[C@H](c4ccccc4)N3[C@@H]2c2ccc(OCCO)cc2)cc1 then?
-0.113

For CCCCN1CC=CC23O[C@@H]4C=CCOC(=O)[C@@H]4[C@H]2C(=O)N(C(CO)C(C)C)[C@@H]3C1=O (stereo partly drawn) then?
0.0186

For CC(C)CNC(=O)[C@@H]1c2ccccc2C(=O)N(Cc2ccccc2)[C@H]1c1ccc(CO)cc1 then?
1.12

Others:
Recorded composite z-score of COCCCNC(=O)[C@@H]1c2ccccc2C(=O)N(C2CCCCC2)[C@H]1c1ccc(CO)cc1 , please.
0.503

For C#CCN([C@H](/C=C/C1CC1)[C@@H](O)Cc1ccccc1)[C@@H](Cc1ccccc1)C(=O)OC then?
0.262

For CCOC(=O)C1=CC[C@@H](c2ccccc2Cl)N(S(=O)(=O)c2ccc(C)cc2)[C@H]1c1cccc(OC)c1 then?
-0.329

src = PubChem BioAssay
